EXPERIMENTAL_TARGET: T1, pDisplay-ECD2 on HEK293 cells (Homo sapiens (Human), UniProt Q99572 47-306)
T1 construct: also called ECD2 as pDisplay; not shown: N-terminal HA tag of pDisplay (told for ECD1); c-Myc tag and PDGFR transmembrane anchorage of pDisplay (told for ECD1)
T1 sequence: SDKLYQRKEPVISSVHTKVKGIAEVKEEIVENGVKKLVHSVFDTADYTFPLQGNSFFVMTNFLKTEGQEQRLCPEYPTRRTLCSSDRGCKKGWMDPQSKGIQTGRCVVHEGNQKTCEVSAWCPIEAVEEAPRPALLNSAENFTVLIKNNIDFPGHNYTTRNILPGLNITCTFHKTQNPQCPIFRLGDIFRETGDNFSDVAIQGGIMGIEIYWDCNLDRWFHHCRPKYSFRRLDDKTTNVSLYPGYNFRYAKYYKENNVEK
TEST_DESCRIPTION: flow cytometry, live HEK293E cells expressing pDisplay-ECD2 ('HEK293E-pDisplay ED'), dAb at 5 uM, detection with anti-human IgG Fab
RECORDED_METRIC: binding result

47.1 (other, also called PEP2-47-1; PEP2-47-1 dAb) VH single domain (dAb): EVQLLESGGGLVQPGGSLRLSCAASGYTFPMKDMGWVRQAPGKGLEWVSAISGSGGGTYYADSVKGRFTISRDNSKNTLYLQMNSLRAEDTAVYYCAEPSHFDRPFDYRSQGTLVTVSS : binds
2.5 (other, Read as PEP2-2-5; it is not PEP2-5; also called PEP2-2-5; PEP2-2-5 dAb) VH single domain (dAb): EVQLLESGGGLVQPGGSLRLSCAASGFTFRNHDMGWVRQAPGKGLEWVSAISGSGGSTYYADSVKGRFTISRDDSKNTLYLQMNSLRAEDTAVYYCAEPKPMDTEFDYRSPGTLVTVSS : binds
42.2 (other, also called PEP2-42-2; PEP2-42-2 dAb) VH single domain (dAb): EVQMLESGGGLVQPGESLRLSCAASGFTFDNVEMSWVRQAPGKGLEWVSSIGSKGEYTYYADSVKGRFTISRDNSKNTLYLQMNSPRAEDTAVYYCAQTVNVPEPAFAYWGQGTLVTVSS : binds
2.4 (other, Read as PEP2-2-4, in line with '2' = PEP2-2 and '47.1' = PEP2-47-1; it is not PEP2-4; also called PEP2-2-4; PEP2-2-4 dAb) VH single domain (dAb): EVQLLESGGGLVQPGGSLRLTCAASGFSFRNHDMGWVRQAPGKGLEWVSAISGSGGSTYYADSVKGRFTISRDNSKNTLYLQMNSLRAEDTAVYYCAEPKPMDTEFDYRSPGTLVTVSS : binds
